Let's look at some compounds and their measured Growth inhibition (% control) GIPRCNT.
tested on: NCI-H522; test: NCI60 growth inhibition, NCI-H522; type: cell-based; conditions: Non-Small Cell Lung Cancer
Only the number, expressed in % control, is required.

Example entries and their recorded answers appear below.
1. CN1CCN(c2cc(F)c(NC3=C(Cl)C(=O)c4ncccc4C3=O)c(F)c2)CC1 [Compound 1] :: −59.746
2. CN1CCN(c2ccc3nc4c(nc3c2C(F)(F)F)C(=O)c2ncccc2C4=O)CC1 [Compound 50] :: −67.5222
3. Cc1ccc2c(n1)C(=O)C(Cl)=C(Nc1ccc(N3CCN(C)CC3)cc1)C2=O [Compound 13] :: −63.7561

Turning to the following compound.
Query: Can you share its Growth inhibition (% control) GIPRCNT? I mean this compound: O=C1c2cccnc2C(=O)c2nc3cc(N4CCN(C5CC5)CC4)ccc3nc21 [Compound 49]
Reply: −50.54

From: patent US20220162167A1
